test system: gastric mucosa; assay: Ethanol-induced gastric mucosal injury in rats (action of protecting gastric mucosa); assay type: in vivo, Male Sprague-Dawley rats; conditions: Rattus norvegicus, po; 6 rats per group; 1, 3, 10 and 30 mg/kg into stomach; 100% ethanol 1 ml orally 30 min later; lesions measured 60 min after ethanol; read-out: Action of protecting gastric mucosa ID50
Recorded ED50 by entry
Provide only the numeric value, understood in mg/kg.

| compound | experimental.target | result.unit | ED50 |
| --- | --- | --- | --- |
| COc1ccnc(C[S+]([O-])c2nc3cc(C(F)(F)F)ccc3[nH]2)c1C (stereo not drawn) [R^1 =5-CF3, R^2 =CH3, R^3 =CH3, R^4 =H, reference compound] | gastric mucosa | mg/kg | 24 |

Form: item CCCOc1ccnc(C[S+]([O-])c2nc3ccccc3[nH]2)c1 (stereo not drawn) ; test system gastric mucosa; ED50: 7.2

Reported gastric mucosa ED50 for item CCCCCCOc1ccnc(C[S+]([O-])c2nc3ccccc3[nH]2)c1 (stereo not drawn) was 1.6

====

test system: gastric mucosa; assay: Ethanol-induced gastric mucosal injury in rats (action of protecting gastric mucosa); type: in vivo, Male Sprague-Dawley rats; settings: Rattus norvegicus, po; 6 rats per group; 1, 3, 10 and 30 mg/kg into stomach; 100% ethanol 1 ml orally 30 min later; lesions measured 60 min after ethanol; read-out: Action of protecting gastric mucosa ID50
outcome.measure: ED50 (mg/kg)
Dear colleague, please return just the value in mg/kg, with no unit written.

Worked set:
| compound | value.measured |
| --- | --- |
| CCCCCCCCOc1ccnc(C[S+]([O-])c2nc3ccccc3[nH]2)c1 (stereo not shown) | 1.6 |
| CC(C)Oc1ccnc(C[S+]([O-])c2nc3cc(C(F)(F)F)ccc3[nH]2)c1 (stereo not shown) | 5.8 |
| CCCCOc1ccnc(C[S+]([O-])c2nc3ccccc3[nH]2)c1 (stereo not shown) | 9.8 |

So the reported ED50 for CC(C)Oc1ccnc(C[S+]([O-])c2nc3ccccc3[nH]2)c1 (stereo not shown) , on gastric mucosa, turned out to be 1.3

Entry COc1ccc2[nH]c([S+]([O-])Cc3ncc(C)c(OC)c3C)nc2c1 (stereo not shown) [reference compound] under gastric mucosa had ED50 of 22

Known value: gastric mucosa ED50 of the compound CC(C)Oc1ccnc(C[S+]([O-])c2nc3cc(F)ccc3[nH]2)c1 (stereo not shown) equals 8.8

Entry CCCOc1ccnc(C[S+]([O-])c2nc3ccccc3[nH]2)c1C (stereo not shown) under gastric mucosa had ED50 of 12.5

Attribution: patent US4727150A
